system name: RAC-beta serine/threonine-protein kinase (Homo sapiens, UniProt P31751)
Sequence (P31751 whole entry): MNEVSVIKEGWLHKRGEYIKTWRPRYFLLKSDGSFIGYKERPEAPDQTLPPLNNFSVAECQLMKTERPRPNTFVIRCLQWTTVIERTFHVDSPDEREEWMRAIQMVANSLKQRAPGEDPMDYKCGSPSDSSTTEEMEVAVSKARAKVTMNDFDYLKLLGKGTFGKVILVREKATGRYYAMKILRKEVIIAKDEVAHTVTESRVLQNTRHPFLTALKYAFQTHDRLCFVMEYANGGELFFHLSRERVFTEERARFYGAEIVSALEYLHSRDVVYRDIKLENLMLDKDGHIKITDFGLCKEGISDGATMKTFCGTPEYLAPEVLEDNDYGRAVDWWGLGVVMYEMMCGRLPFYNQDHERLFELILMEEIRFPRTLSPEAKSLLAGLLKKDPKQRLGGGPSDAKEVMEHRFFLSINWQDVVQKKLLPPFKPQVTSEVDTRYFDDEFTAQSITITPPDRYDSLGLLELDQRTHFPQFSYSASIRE
pIC50: −log10 of the molar value.
If the reported pIC50 equals or exceeds 8, assign 1. If not, assign 0.

Use these answered entries as a reference point.
[
  {
    "smiles structure": "NC(=O)Nc1ccc2c(c1)/C(=C/c1cc(C(=O)NCCN3CCOCC3)c[nH]1)C(=O)N2",
    "system name": "RAC-beta serine/threonine-protein kinase (Homo sapiens, UniProt P31751)",
    "cat": 0
  },
  {
    "smiles structure": "C/C(=C1/C(=O)Nc2ccc(NC(N)=O)cc21)c1cc(CNC(=O)CN)c[nH]1",
    "system name": "RAC-beta serine/threonine-protein kinase (Homo sapiens, UniProt P31751)",
    "cat": 1
  },
  {
    "smiles structure": "NC(=O)Nc1ccc2c(c1)/C(=C/c1cc(-c3ccccc3)c[nH]1)C(=O)N2",
    "system name": "RAC-beta serine/threonine-protein kinase (Homo sapiens, UniProt P31751)",
    "cat": 0
  }
]

Lab note: next compound to report on.
Form field: pIC50 at least 8? Entry: `CN(C)CCNC(=O)c1c[nH]c(/C=C2\C(=O)Nc3ccc(NC(N)=O)cc32)c1`
0
